Data provenance: ChEMBL document CHEMBL3885861

Each entry below carries its reported TG.
- Species: Rattus norvegicus
- assay.comment: Open TG-GATES - Regimen: Single
- Type: toxicity, organism-based, Sprague-Dawley
- Design: regimen Single, gender Male, age 6 weeks
- condition.details: in vivo, po, 10 mg/kg, 24 h, tissue Plasma, route gavage, dose level Low
experimental.endpoint: TG (mg/dL)

[
  {
    "molecule": "CN(C)CCCN1c2ccccc2CCc2ccc(Cl)cc21",
    "assay.result": 91.6
  },
  {
    "molecule": "CC(C)OC(=O)C(C)(C)Oc1ccc(C(=O)c2ccc(Cl)cc2)cc1 [FENOFIBRATE]",
    "assay.result": 54
  },
  {
    "molecule": "CN(C)CCN(Cc1cccs1)c1ccccn1",
    "assay.result": 131.8
  },
  {
    "molecule": "CC1=C(/C=C/C(C)=C/C=C/C(C)=C/CO)C(C)(C)CCC1",
    "assay.result": 114.6
  }
]

---

- Organism: Rattus norvegicus
- assay.comment: Open TG-GATES - Regimen: Single
- Type: toxicity, organism-based, Sprague-Dawley
- Parameters: regimen Single, gender Male, age 6 weeks
- condition.details: in vivo, po, 100 mg/kg, 24 h, route gavage, dose level Low
// reported TERMINAL_BW per item

[
  {
    "compound": "COC1=CC(=O)C[C@@H](C)[C@]12Oc1c(Cl)c(OC)cc(OC)c1C2=O [GRISEOFULVIN]",
    "TERMINAL_BW [g]": 224.8
  },
  {
    "compound": "NC(N)=Nc1nc(CSCCC(N)=NS(N)(=O)=O)cs1 [FAMOTIDINE]",
    "TERMINAL_BW [g]": 225.3
  },
  {
    "compound": "CCOC(=O)CCC(=O)O[C@H]1[C@H](O[C@@H]2[C@@H](C)[C@H](O[C@H]3C[C@@](C)(OC)[C@@H](O)[C@H](C)O3)[C@@H](C)C(=O)O[C@H](CC)[C@@](C)(O)[C@H](O)[C@@H](C)C(=O)[C@H](C)C[C@@]2(C)O)O[C@H](C)C[C@@H]1N(C)C [ERYTHROMYCIN ETHYLSUCCINATE]",
    "TERMINAL_BW [g]": 222.7
  },
  {
    "compound": "COc1ccc2[nH]c([S+]([O-])Cc3ncc(C)c(OC)c3C)nc2c1 (centres undefined) [OMEPRAZOLE]",
    "TERMINAL_BW [g]": 234.1
  }
]

---

Listing: ALP of selected molecules
- Species: Rattus norvegicus
- assay.comment: Open TG-GATES - Regimen: Daily Repeat
- Format: toxicity, organism-based, Sprague-Dawley
- Set-up: regimen Daily Repeat, gender Male, age 6 weeks
- condition.details: in vivo, po, 100 mg/kg, […], tissue Plasma, route gavage, dose level Low, time 28 day
experimental.endpoint: ALP (IU/L)

[
  {
    "molecule": "NC(N)=Nc1nc(CSCCC(N)=NS(N)(=O)=O)cs1 [FAMOTIDINE]",
    "experimental.endpoint": "ALP",
    "assay.result": 577.4
  },
  {
    "molecule": "CCOc1ccc(NC(=O)CC(C)O)cc1 (stereo not given) [BUCETIN]",
    "experimental.endpoint": "ALP",
    "assay.result": 1115.2
  },
  {
    "molecule": "COc1ccc2[nH]c([S+]([O-])Cc3ncc(C)c(OC)c3C)nc2c1 (stereo not given) [OMEPRAZOLE]",
    "experimental.endpoint": "ALP",
    "assay.result": 538.6
  },
  {
    "molecule": "CCOC(=O)CCC(=O)O[C@H]1[C@H](O[C@@H]2[C@@H](C)[C@H](O[C@H]3C[C@@](C)(OC)[C@@H](O)[C@H](C)O3)[C@@H](C)C(=O)O[C@H](CC)[C@@](C)(O)[C@H](O)[C@@H](C)C(=O)[C@H](C)C[C@@]2(C)O)O[C@H](C)C[C@@H]1N(C)C [ERYTHROMYCIN ETHYLSUCCINATE]",
    "experimental.endpoint": "ALP",
    "assay.result": 1003.2
  },
  {
    "molecule": "COC1=CC(=O)C[C@@H](C)[C@]12Oc1c(Cl)c(OC)cc(OC)c1C2=O [GRISEOFULVIN]",
    "experimental.endpoint": "ALP",
    "assay.result": 684.6
  }
]

---

- Species: Rattus norvegicus
- assay.comment: Open TG-GATES - Regimen: Single
- Assay type: toxicity, organism-based, Sprague-Dawley
- Design: regimen Single, gender Male, age 6 weeks
- condition.details: in vivo, po, 300 mg/kg, 6 h, tissue Blood, route gavage, dose level Middle
Known APTT of a selection of compounds
experimental.endpoint: APTT (s)

[
  {
    "compound": "COc1ccc2[nH]c([S+]([O-])Cc3ncc(C)c(OC)c3C)nc2c1 (centres undefined)",
    "assay.result": 19
  },
  {
    "compound": "NC(N)=Nc1nc(CSCCC(N)=NS(N)(=O)=O)cs1",
    "assay.result": 18.9
  },
  {
    "compound": "CCOC(=O)CCC(=O)O[C@H]1[C@H](O[C@@H]2[C@@H](C)[C@H](O[C@H]3C[C@@](C)(OC)[C@@H](O)[C@H](C)O3)[C@@H](C)C(=O)O[C@H](CC)[C@@](C)(O)[C@H](O)[C@@H](C)C(=O)[C@H](C)C[C@@]2(C)O)O[C@H](C)C[C@@H]1N(C)C [ERYTHROMYCIN ETHYLSUCCINATE]",
    "assay.result": 22.3
  },
  {
    "compound": "COC1=CC(=O)C[C@@H](C)[C@]12Oc1c(Cl)c(OC)cc(OC)c1C2=O",
    "assay.result": 17.7
  }
]

---

Each entry below lists one item and its recorded RBC value.
- Species: Rattus norvegicus
- assay.comment: Open TG-GATES - Regimen: Daily Repeat
- Assay type: toxicity, organism-based, Sprague-Dawley
- Design: regimen Daily Repeat, gender Male, age 6 weeks
- condition.details: in vivo, po, 0 mg/kg, 72 h, tissue Blood, route gavage, dose level Control, time 3 day

[
  {
    "compound": "CC(C)OC(=O)C(C)(C)Oc1ccc(C(=O)c2ccc(Cl)cc2)cc1 [FENOFIBRATE]",
    "RBC / x10_4/ul": 625.4
  },
  {
    "compound": "O=C(CCCN1CCC(O)(c2ccc(Cl)cc2)CC1)c1ccc(F)cc1",
    "RBC / x10_4/ul": 632.8
  },
  {
    "compound": "NNC(=O)c1ccncc1",
    "RBC / x10_4/ul": 626.2
  },
  {
    "compound": "CCCNC(=O)NS(=O)(=O)c1ccc(Cl)cc1 [CHLORPROPAMIDE]",
    "RBC / x10_4/ul": 605.6
  },
  {
    "compound": "CCOc1ccc(NC(=O)CC(C)O)cc1 (stereo not given)",
    "RBC / x10_4/ul": 627
  }
]

---

Listed here: items and their measured TP.
- Organism: Rattus norvegicus
- assay.comment: Open TG-GATES - Regimen: Single
- Type: toxicity, organism-based, Sprague-Dawley
- Parameters: regimen Single, gender Male, age 6 weeks
- condition.details: in vivo, po, 10 mg/kg, 24 h, tissue Plasma, route gavage, dose level Low

[
  {
    "molecule": "CC(C)OC(=O)C(C)(C)Oc1ccc(C(=O)c2ccc(Cl)cc2)cc1 [FENOFIBRATE]",
    "TP [g/dL]": 5.4
  },
  {
    "molecule": "CC1=C(/C=C/C(C)=C/C=C/C(C)=C/CO)C(C)(C)CCC1 [RETINOL]",
    "TP [g/dL]": 5.4
  },
  {
    "molecule": "CN(C)CCCN1c2ccccc2CCc2ccc(Cl)cc21 [CLOMIPRAMINE]",
    "TP [g/dL]": 5.4
  },
  {
    "molecule": "CN(C)CCCN1c2ccccc2CCc2ccccc21 [IMIPRAMINE]",
    "TP [g/dL]": 5.4
  },
  {
    "molecule": "CN(C)CCN(Cc1cccs1)c1ccccn1",
    "TP [g/dL]": 5.3
  }
]

---

Fbg: recorded values
- Species on record: Rattus norvegicus
- assay.comment: Open TG-GATES - Regimen: Single
- Format: toxicity, organism-based, Sprague-Dawley
- Set-up: regimen Single, gender Male, age 6 weeks
- condition.details: in vivo, po, 100 mg/kg, 24 h, tissue Blood, route gavage, dose level Low
experimental.endpoint: Fbg

[
  {
    "compound": "CCOC(=O)CCC(=O)O[C@H]1[C@H](O[C@@H]2[C@@H](C)[C@H](O[C@H]3C[C@@](C)(OC)[C@@H](O)[C@H](C)O3)[C@@H](C)C(=O)O[C@H](CC)[C@@](C)(O)[C@H](O)[C@@H](C)C(=O)[C@H](C)C[C@@]2(C)O)O[C@H](C)C[C@@H]1N(C)C [ERYTHROMYCIN ETHYLSUCCINATE]",
    "experimental.endpoint": "Fbg",
    "assay.result": "326.2 mg/dL"
  },
  {
    "compound": "NC(N)=Nc1nc(CSCCC(N)=NS(N)(=O)=O)cs1",
    "experimental.endpoint": "Fbg",
    "assay.result": "229.6 mg/dL"
  },
  {
    "compound": "COC1=CC(=O)C[C@@H](C)[C@]12Oc1c(Cl)c(OC)cc(OC)c1C2=O",
    "experimental.endpoint": "Fbg",
    "assay.result": "222.4 mg/dL"
  },
  {
    "compound": "COc1ccc2[nH]c([S+]([O-])Cc3ncc(C)c(OC)c3C)nc2c1 (centres undefined)",
    "experimental.endpoint": "Fbg",
    "assay.result": "216.2 mg/dL"
  }
]
